# Organism: Rattus norvegicus
# TEST_DETAILS: DrugMatrix - Regimen: Daily Repeat
# Type: toxicity, organism-based, Sprague-Dawley
# Parameters: regimen Daily Repeat, gender Male, age 6-8 weeks
# EXPERIMENTAL_CONTEXT: in vivo, po, 1500 mg/kg, 120 h, tissue Blood, route oral GAVAGE, dose level High, time 5 day, vehicle .5 % CMC
PROPERTY: ABSOLUTE SEGMENTED NEUTROPHIL

Known results for molecules:
# MOLECULE, ABSOLUTE SEGMENTED NEUTROPHIL
rows = [
    ("CO[C@H]1/C=C/O[C@@]2(C)Oc3c(C)c(O)c4c(c3C2=O)C2=NC3(CCN(CC(C)C)CC3)NC2=C(NC(=O)/C(C)=C\\C=C\\[C@H](C)[C@H](O)[C@@H](C)[C@@H](O)[C@@H](C)[C@H](OC(C)=O)[C@@H]1C)C4=O", "2639 CELLS/uL"),
    ("O=C(N[C@H](CO)[C@H](O)c1ccc([N+](=O)[O-])cc1)C(Cl)Cl", "1126.33 CELLS/uL"),
    ("C[C@]1(Cn2ccnn2)[C@H](C(=O)O)N2C(=O)C[C@H]2S1(=O)=O", "1019.67 CELLS/uL"),
    ("Cc1cc(=O)n(-c2ccccc2)n1C [ANTIPYRINE]", "3680.33 CELLS/uL"),
    ("CNC(=C[N+](=O)[O-])NCCSCc1ccc(CN(C)C)o1", "1274 CELLS/uL"),
    ("Cc1ccc(S(=O)(=O)NC(=O)NN2CC3CCCC3C2)cc1 (configuration not stated) [GLICLAZIDE]", "1151.67 CELLS/uL"),
]

Consider the record given below.
Memo: NC(=O)c1cnccn1 [PYRAZINAMIDE] , reported ABSOLUTE SEGMENTED NEUTROPHIL: 1353 CELLS/uL

* * *

# Organism: Rattus norvegicus
# TEST_DETAILS: DrugMatrix - Regimen: Daily Repeat
# Format: toxicity, organism-based, Sprague-Dawley
# Set-up: regimen Daily Repeat, gender Male, age 6-8 weeks
# EXPERIMENTAL_CONTEXT: in vivo, po, 10 mg/kg, 120 h, tissue Blood, route oral GAVAGE, dose level Low, time 5 day, […]
PROPERTY: ABSOLUTE EOSINOPHIL (CELLS/uL)
Numbers only; they are read as CELLS/uL.

Known results for molecules:
# MOLECULE, UNIT_NAME, ABSOLUTE EOSINOPHIL
data = [
    ("CCOC(=O)C1=C(C)NC(C)=C(C(=O)OC)C1c1cccc([N+](=O)[O-])c1 (centres undefined) [NITRENDIPINE]", "CELLS/uL", 0),
    ("COc1ccc2cc([C@H](C)C(=O)O)ccc2c1 [NAPROXEN]", "CELLS/uL", 321),
]

Memo: COCCOC(=O)C1=C(C)NC(C)=C(C(=O)OC(C)C)C1c1cccc([N+](=O)[O-])c1 (centres undefined) [NIMODIPINE] , reported ABSOLUTE EOSINOPHIL: 0

Memo: CC(C)CC(N(C)C)C1(c2ccc(Cl)cc2)CCC1 (centres undefined) [SIBUTRAMINE] , reported ABSOLUTE EOSINOPHIL: 0

* * *

Reported values of LEUKOCYTE COUNT for individual entries
# Species on record: Rattus norvegicus
# TEST_DETAILS: DrugMatrix - Regimen: Daily Repeat
# Assay type: toxicity, organism-based, Sprague-Dawley
# Parameters: regimen Daily Repeat, gender Male, age 6-8 weeks
# EXPERIMENTAL_CONTEXT: in vivo, po, 0 mg/kg, 120 h, tissue Blood, route oral GAVAGE, dose level Control, time 5 day, vehicle 100 % WATER
Numbers only; they are read as x10E3/uL.

# COMPOUND, LEUKOCYTE COUNT, x10E3/uL
records = [
    ("CC(C)(C)c1ccc(C(=O)CCCN2CCC(OC(c3ccccc3)c3ccccc3)CC2)cc1", 15.87),
    ("C[N+](C)(C)CCO.[Cl-] [CHOLINE CHLORIDE]", 14.75),
    ("COC(=O)C1=C(C)NC(C)=C(C(=O)OCC(C)C)C1c1ccccc1[N+](=O)[O-] (stereo not given)", 11.32),
    ("Cc1ncc([N+](=O)[O-])n1CCO", 8.42),
]

Consider the record given below.
Memo: `Nc1ccn([C@@H]2CS[C@H](CO)O2)c(=O)n1` , reported LEUKOCYTE COUNT: 8.18

* * *

# Organism: Rattus norvegicus
# TEST_DETAILS: DrugMatrix - Regimen: Daily Repeat
# Type: toxicity, organism-based, Sprague-Dawley
# Design: regimen Daily Repeat, gender Male, age 6-8 weeks
# EXPERIMENTAL_CONTEXT: in vivo, iv, 0 mg/kg, 120 h, tissue Plasma, dose level Control, time 5 day, vehicle 100 % SALINE
Reported values of GLUCOSE for individual entries
Numbers only; they are read as mg/dL.

Known results for molecules:
# MOLECULE, GLUCOSE [mg/dL]
rows = [
    ("COc1cccc2c1C(=O)c1c(O)c3c(c(O)c1C2=O)C[C@@](O)(C(=O)CO)C[C@@H]3O[C@H]1C[C@H](N)[C@H](O)[C@H](C)O1", 163),
    ("CCc1c2c(nc3ccc(OC(=O)N4CCC(N5CCCCC5)CC4)cc13)-c1cc3c(c(=O)n1C2)COC(=O)[C@]3(O)CC", 148.83),
    ("COc1cccc2c1C(=O)c1c(O)c3c(c(O)c1C2=O)C[C@@](O)(C(=O)CO)C[C@@H]3O[C@H]1C[C@H](N)[C@@H](O)[C@H](C)O1 [EPIRUBICIN]", 148.83),
    ("CC(=O)N[C@@H]1[C@H](Oc2c3cc4cc2Oc2ccc(cc2Cl)[C@@H](O[C@@H]2O[C@@H](CO)[C@@H](O)[C@H](O)[C@@H]2NC(C)=O)[C@@H]2NC(=O)[C@H](NC(=O)[C@@H]4NC(=O)[C@H]4NC(=O)[C@@H](Cc5ccc(c(Cl)c5)O3)NC(=O)[C@H](N)c3ccc(O)c(c3)Oc3cc(O)cc4c3)c3ccc(O)c(c3)-c3c(O[C@H]4O[C@H](CO)[C@@H](O)[C@@H](O)[C@@H]4O)cc(O)cc3[C@@H](C(=O)O)NC2=O)O[C@@H](CO)[C@@H](O)[C@@H]1O", 170.67),
    ("CCC1=C[C@@H]2CN(C1)Cc1c([nH]c3ccccc13)[C@@](C(=O)OC)(c1cc3c(cc1OC)N(C)[C@H]1[C@@](O)(C(=O)OC)[C@H](OC(C)=O)[C@]4(CC)C=CCN5CC[C@]31[C@@H]54)C2", 167.33),
]

Consider the record given below.
Memo: `CC[C@]1(O)C[C@@H]2CN(CCc3c([nH]c4ccccc34)[C@@](C(=O)OC)(c3cc4c(cc3OC)N(C)[C@H]3[C@@](O)(C(=O)OC)[C@H](OC(C)=O)[C@]5(CC)C=CCN6CC[C@]43[C@@H]65)C2)C1` , reported GLUCOSE: 186.83

* * *

# Organism: Rattus norvegicus
# TEST_DETAILS: DrugMatrix - Regimen: Daily Repeat
# Type: toxicity, organism-based, Sprague-Dawley
# Parameters: regimen Daily Repeat, gender Male, age 6-8 weeks
# EXPERIMENTAL_CONTEXT: in vivo, po, 10 mg/kg, 72 h, tissue Plasma, route oral GAVAGE, dose level Low, time 3 day, […]
PROPERTY: SODIUM (MEQ/L)
Numbers only; they are read as MEQ/L.

# COMPOUND, PROPERTY, NUMERIC_VALUE
measured = [
    ("CCOC(=O)C1=C(C)NC(C)=C(C(=O)OC)C1c1cccc([N+](=O)[O-])c1 (centres undefined)", "SODIUM", 144.4),
    ("CC(C)CC(N(C)C)C1(c2ccc(Cl)cc2)CCC1 (centres undefined)", "SODIUM", 140.57),
    ("COCCOC(=O)C1=C(C)NC(C)=C(C(=O)OC(C)C)C1c1cccc([N+](=O)[O-])c1 (centres undefined)", "SODIUM", 144.23),
]

Consider the record given below.
Memo: `COc1ccc2cc([C@H](C)C(=O)O)ccc2c1` , reported SODIUM: 143.67

* * *

# Species on record: Rattus norvegicus
# TEST_DETAILS: DrugMatrix - Regimen: Daily Repeat
# Format: toxicity, organism-based, Sprague-Dawley
# Parameters: regimen Daily Repeat, gender Male, age 6-8 weeks
# EXPERIMENTAL_CONTEXT: in vivo, iv, 0 mg/kg, 72 h, tissue Plasma, dose level Control, time 3 day, vehicle 100 % SALINE
Reported values of TOTAL BILIRUBIN for individual entries
Numbers only; they are read as mg/dL.

Memo: `CC(=O)N[C@@H]1[C@H](Oc2c3cc4cc2Oc2ccc(cc2Cl)[C@@H](O[C@@H]2O[C@@H](CO)[C@@H](O)[C@H](O)[C@@H]2NC(C)=O)[C@@H]2NC(=O)[C@H](NC(=O)[C@@H]4NC(=O)[C@H]4NC(=O)[C@@H](Cc5ccc(c(Cl)c5)O3)NC(=O)[C@H](N)c3ccc(O)c(c3)Oc3cc(O)cc4c3)c3ccc(O)c(c3)-c3c(O[C@H]4O[C@H](CO)[C@@H](O)[C@@H](O)[C@@H]4O)cc(O)cc3[C@@H](C(=O)O)NC2=O)O[C@@H](CO)[C@@H](O)[C@@H]1O` , reported TOTAL BILIRUBIN: 0.23

Memo: `CCC1=C[C@@H]2CN(C1)Cc1c([nH]c3ccccc13)[C@@](C(=O)OC)(c1cc3c(cc1OC)N(C)[C@H]1[C@@](O)(C(=O)OC)[C@H](OC(C)=O)[C@]4(CC)C=CCN5CC[C@]31[C@@H]54)C2` , reported TOTAL BILIRUBIN: 0.18
